Biological target: T1, soluble recombinant human uPAR/His6 (R&D Systems, Cat. # 807-UK-100) (human, UniProt Q03405 23-303)
T1 construct: range 1-303; Bought protein; also called soluble uPAR; hu-uPAR
T1 sequence (Q03405 other isoform, or with tags, fused parts or gaps limits assumed, form in doubt): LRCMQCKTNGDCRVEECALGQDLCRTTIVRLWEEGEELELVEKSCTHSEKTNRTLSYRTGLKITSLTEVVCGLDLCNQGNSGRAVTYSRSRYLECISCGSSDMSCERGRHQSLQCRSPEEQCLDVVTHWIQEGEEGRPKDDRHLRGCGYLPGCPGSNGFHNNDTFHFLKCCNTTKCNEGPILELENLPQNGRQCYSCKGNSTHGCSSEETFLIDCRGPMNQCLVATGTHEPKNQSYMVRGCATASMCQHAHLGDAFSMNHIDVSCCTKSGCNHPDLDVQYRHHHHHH
Assay: low resolution Biacore
Checkbox rule: Kd lower than 3 nM = YES; Kd not lower than 3 nM = NO.

[Q] Dear reviewer, please state whether anti-uPAR monoclonal antibody 1.113.2 (antibody, V domains shown) VH: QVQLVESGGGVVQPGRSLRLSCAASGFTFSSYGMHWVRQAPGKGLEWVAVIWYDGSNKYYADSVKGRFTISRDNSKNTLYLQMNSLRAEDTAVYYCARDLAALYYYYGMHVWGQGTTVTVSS VL: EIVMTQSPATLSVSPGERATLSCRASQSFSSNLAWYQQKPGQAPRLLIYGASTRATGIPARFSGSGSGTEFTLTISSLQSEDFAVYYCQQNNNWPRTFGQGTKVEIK has Kd strictly beneath 3 nM.
[A] NO

[Q] Dear reviewer, please state whether anti-uPAR monoclonal antibody 3.8.3 (antibody, V domains shown) VH: EVQLVESGGGLVQPGGSLRLSCAASGFTFSSYWMSWVRQAPGKGLEWVANIKQHGSEKYYVDSVKGRFTISRDNAKNSLYLQMNSLRAEDTAVYYCAREEAYYYDNSGYYWYFDLWARGTLVTVSS VL: DIQMTQSPSSVSASIGDRVTITCRASQGISSWLAWYQQKPGKTPKLLIYAASSLQSGVPSRFSGSGSGTDFTLTISSLQPEDFATYYCQQADSFPWTFGQGTKVEIK has Kd strictly beneath 3 nM.
[A] NO

[Q] Dear reviewer, please state whether anti-uPAR monoclonal antibody 1.41.1 (antibody, V domains shown) VH: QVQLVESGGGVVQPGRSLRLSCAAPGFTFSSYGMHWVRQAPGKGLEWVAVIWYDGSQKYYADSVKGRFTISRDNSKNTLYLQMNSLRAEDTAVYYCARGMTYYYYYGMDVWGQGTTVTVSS VL: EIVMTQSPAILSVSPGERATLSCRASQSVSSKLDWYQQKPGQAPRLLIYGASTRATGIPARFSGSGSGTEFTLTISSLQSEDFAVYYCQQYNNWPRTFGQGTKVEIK has Kd strictly beneath 3 nM.
[A] NO

[Q] Dear reviewer, please state whether anti-uPAR monoclonal antibody 1.4.2 (antibody, V domains shown) VH: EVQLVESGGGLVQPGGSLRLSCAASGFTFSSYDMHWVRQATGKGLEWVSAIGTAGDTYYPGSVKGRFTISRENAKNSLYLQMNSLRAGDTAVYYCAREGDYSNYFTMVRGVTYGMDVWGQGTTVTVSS VL: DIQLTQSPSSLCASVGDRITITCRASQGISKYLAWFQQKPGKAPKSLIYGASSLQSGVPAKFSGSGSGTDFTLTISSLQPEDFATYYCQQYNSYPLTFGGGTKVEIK has Kd strictly beneath 3 nM.
[A] NO

[Q] Dear reviewer, please state whether anti-uPAR monoclonal antibody 4.19.1 (antibody, V domains shown) VH: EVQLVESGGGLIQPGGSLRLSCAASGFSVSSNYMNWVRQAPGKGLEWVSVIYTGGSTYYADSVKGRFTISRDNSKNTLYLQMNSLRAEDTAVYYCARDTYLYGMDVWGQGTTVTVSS VL: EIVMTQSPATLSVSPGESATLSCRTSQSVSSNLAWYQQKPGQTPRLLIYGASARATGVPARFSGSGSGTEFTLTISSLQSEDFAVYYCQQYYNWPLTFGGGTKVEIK has Kd strictly beneath 3 nM.
[A] YES

[Q] Dear reviewer, please state whether anti-uPAR monoclonal antibody 1.61.1 (antibody, V domains shown) VH: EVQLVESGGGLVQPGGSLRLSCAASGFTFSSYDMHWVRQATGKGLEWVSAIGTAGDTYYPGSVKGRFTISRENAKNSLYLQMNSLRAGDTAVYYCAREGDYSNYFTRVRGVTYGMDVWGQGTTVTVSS VL: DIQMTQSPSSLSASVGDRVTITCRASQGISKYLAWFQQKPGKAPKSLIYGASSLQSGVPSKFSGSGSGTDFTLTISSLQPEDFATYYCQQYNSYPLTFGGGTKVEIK has Kd strictly beneath 3 nM.
[A] YES
